systemTested: SIRT1 (Homo sapiens, UniProt Q96EB6)
Sequence (Q96EB6 1-747): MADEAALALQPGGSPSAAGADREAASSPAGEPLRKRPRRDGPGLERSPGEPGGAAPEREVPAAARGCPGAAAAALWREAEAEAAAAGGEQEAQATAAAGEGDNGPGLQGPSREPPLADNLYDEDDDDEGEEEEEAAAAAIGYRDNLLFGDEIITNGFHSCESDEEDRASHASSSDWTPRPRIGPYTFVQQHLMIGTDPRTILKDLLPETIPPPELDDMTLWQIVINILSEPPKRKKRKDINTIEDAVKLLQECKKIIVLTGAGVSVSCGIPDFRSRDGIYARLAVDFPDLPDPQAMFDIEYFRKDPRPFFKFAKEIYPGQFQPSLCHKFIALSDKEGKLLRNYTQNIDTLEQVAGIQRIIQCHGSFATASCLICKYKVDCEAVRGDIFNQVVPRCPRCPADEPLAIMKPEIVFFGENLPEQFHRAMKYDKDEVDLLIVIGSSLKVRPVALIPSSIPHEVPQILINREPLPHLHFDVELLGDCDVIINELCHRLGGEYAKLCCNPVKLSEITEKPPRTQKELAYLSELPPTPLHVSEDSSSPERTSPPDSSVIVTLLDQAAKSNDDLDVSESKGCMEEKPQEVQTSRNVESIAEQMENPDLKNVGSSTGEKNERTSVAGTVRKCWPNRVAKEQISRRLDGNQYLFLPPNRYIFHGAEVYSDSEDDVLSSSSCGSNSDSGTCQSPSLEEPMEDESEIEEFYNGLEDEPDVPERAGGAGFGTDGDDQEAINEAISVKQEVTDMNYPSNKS
protocolNotes: Mass spectrometry based SIRT1 deacetylation assay (activation)
Format: biochemical
conditionSummary: 10 nM SIRT1, 0.5 μM peptide substrate, 120 μM βNAD+, 25 min at 25° C.
reportedProperty: EC1.5 (concentration of test compound that results in 150% activation of SIRT1)

                                   compound     observedresult
0  O=C(Nc1cccnc1)Nc1cccc2ccc(-c3cccc(OC(F)(F)F)c3)nc12 [Compound 47]   A (EC1.5<1.0 uM)
1  O=C(Nc1ncc(CN2CCCC2)s1)c1cccc2ccc(-c3cccc(C(F)F)c3)nc12 [Compound 262]  B (EC1.5 1-25 uM)
2  O=C(Nc1nccs1)c1cccc2ccc(-c3ccnc(N4CCOCC4)c3)nc12 [Compound 209]   A (EC1.5<1.0 uM)
3  O=C(Nc1cccc2ccc(-c3cccc(C(F)(F)F)c3)nc12)c1cccc(OCCN2CCOCC2)c1 [Compound 318]    C (EC1.5>25 uM)
4  O=C(Nc1cccnc1)c1cccc2ccc(-c3cccc(OC(F)(F)F)c3)nc12 [Compound 25]   A (EC1.5<1.0 uM)

Exercise: Provide only the value of recorded EC1.5 (concentration of test compound that results in 150% activation of SIRT1) for O=C(Nc1cccc2ccc(-c3ccccc3OCCN3CCOCC3)nc12)c1cscn1 [Compound 175]
Key: B (EC1.5 1-25 uM)

Exercise: Provide only the value of recorded EC1.5 (concentration of test compound that results in 150% activation of SIRT1) for O=C(NCc1ccncc1)c1cccc2ccc(-c3cccc(O[C@@H]4CCNC4)c3)nc12 [Compound 103]
Key: B (EC1.5 1-25 uM)

Exercise: Provide only the value of recorded EC1.5 (concentration of test compound that results in 150% activation of SIRT1) for O=C(Nc1cnccn1)c1cccc2ccc(-c3cccnc3)nc12 [Compound 181]
Key: C (EC1.5>25 uM)

Exercise: Provide only the value of recorded EC1.5 (concentration of test compound that results in 150% activation of SIRT1) for c1cncc(CNc2cccc3ccc(-c4cccc(N5CCCC5)c4)nc23)c1 [Compound 173]
Key: C (EC1.5>25 uM)

Exercise: Provide only the value of recorded EC1.5 (concentration of test compound that results in 150% activation of SIRT1) for CN1CCOc2cc(-c3ccc4cccc(NC(=O)c5cscn5)c4n3)ccc21 [Compound 202]
Key: A (EC1.5<1.0 uM)
